# measured on: soluble ectodomain of sortilin-6his (Homo sapiens, UniProt Q99523, V650M)
# Construct: the soluble ectodomain of sortilin-6his is measured by microscale thermophoresis (MST)
# Sequence (Q99523 with tags, fused parts or gaps V650M): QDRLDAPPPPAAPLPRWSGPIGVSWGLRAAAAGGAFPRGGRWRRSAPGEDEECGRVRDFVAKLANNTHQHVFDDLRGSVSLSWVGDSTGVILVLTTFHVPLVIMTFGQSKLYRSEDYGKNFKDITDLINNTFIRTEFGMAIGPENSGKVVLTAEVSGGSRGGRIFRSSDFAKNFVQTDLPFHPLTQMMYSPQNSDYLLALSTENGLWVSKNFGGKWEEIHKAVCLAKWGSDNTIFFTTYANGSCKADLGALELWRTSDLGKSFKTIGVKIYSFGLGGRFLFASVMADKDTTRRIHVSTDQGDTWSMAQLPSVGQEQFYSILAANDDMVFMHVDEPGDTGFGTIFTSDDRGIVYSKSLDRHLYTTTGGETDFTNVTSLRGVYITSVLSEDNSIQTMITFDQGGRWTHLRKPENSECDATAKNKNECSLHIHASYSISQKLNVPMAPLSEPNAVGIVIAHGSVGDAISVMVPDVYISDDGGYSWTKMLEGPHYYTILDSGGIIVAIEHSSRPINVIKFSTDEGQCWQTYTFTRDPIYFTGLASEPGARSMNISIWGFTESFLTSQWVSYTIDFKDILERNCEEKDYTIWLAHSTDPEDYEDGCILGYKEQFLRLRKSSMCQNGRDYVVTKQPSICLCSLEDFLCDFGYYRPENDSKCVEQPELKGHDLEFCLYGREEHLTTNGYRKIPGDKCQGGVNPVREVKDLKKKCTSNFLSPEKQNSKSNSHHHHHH
# test details: MST binding to soluble ectodomain of sortilin-6his
# test conditions: Table 4; small molecule bifunctional compounds; MST; read-out: KD score, binding to sortilin (Kd)
pKd: −log10 of the molar value.
Listing: pKd of selected molecules

- C[C@@H]1CN(c2ncc(-c3ccc4c(n3)N(Cc3cccnc3C#N)C(C)(C)C4=O)cn2)CCN1C(=O)COCCOCCOCCOCCNC(=O)c1cccc(Oc2ccc(C(=O)N[C@@H](CCC(C)(C)C)C(=O)O)cn2)c1 [BF031]: 6.60 to 8.00
- Cc1nc2cc(F)c(-c3cnc(OCCN4CC(n5cc(COCC(=O)N6CC(OCCNC(=O)COc7cccc(Oc8ccc(C(=O)N[C@@H](CCC(C)(C)C)C(=O)O)cn8)c7)C6)nn5)C4)nc3)nc2c(N[C@H](C)c2cc(C#N)ccc2F)c1Cl [BF089]: > 9.00
- CC(C)(C)CC[C@H](NC(=O)c1ccc(Oc2cccc(OCCOCCOCCOCCNc3ccc([N+](=O)[O-])cc3[N+](=O)[O-])c2)nc1)C(=O)O [BF007]: 8.00 to 9.00

## Task Which pKd value belongs to C[C@@H]1CN(c2ncc(-c3ccc4c(n3)N(Cc3cccnc3C#N)C(C)(C)C4=O)cn2)CCN1C(=O)CNC(=O)CCCCCCCCCNC(=O)c1cccc(Oc2ccc(C(=O)N[C@@H](CCC(C)(C)C)C(=O)O)cn2)c1 [BF043] ?
## Result > 9.00

## Task Which pKd value belongs to CC(C)(C)CC[C@H](NC(=O)c1ccc(Oc2cccc3c(C(=O)NCCCNC(=O)CCOCCOCCOCCOCCNC(=O)CCCC[C@@H]4SC[C@@H]5NC(=O)N[C@@H]54)cccc23)nc1)C(=O)O [BF020] ?
## Result 6.60 to 8.00

---

# measured on: soluble ectodomain of sortilin-6his (Homo sapiens, UniProt Q99523, V650M)
# Construct: the soluble ectodomain of sortilin-6his is measured by microscale thermophoresis (MST)
# test details: MST binding to soluble ectodomain of sortilin-6his
# test conditions: Table 4; small molecule bifunctional compounds; MST; read-out: KD score, binding to sortilin (Kd)
reported metric: Kd

Example cases with answers are listed next.
* C[C@@H]1CN(c2ncc(-c3ccc4c(n3)N(Cc3cccnc3C#N)C(C)(C)C4=O)cn2)CCN1C(=O)CNC(=O)CCCCCOCCOCCNC(=O)c1cccc(Oc2ccc(C(=O)N[C@@H](CCC(C)(C)C)C(=O)O)cn2)c1 | < 1 nM
* C[C@@H]1CN(c2ncc(-c3ccc4c(n3)N(Cc3cccnc3C#N)C(C)(C)C4=O)cn2)CCN1C(=O)CNC(=O)CCCCCCCCn1cc(CCc2cccc(Oc3ccc(C(=O)N[C@@H](CCC(C)(C)C)C(=O)O)cn3)c2)nn1 | 1 to 10 nM
* CC(C)(C)CC[C@H](NC(=O)c1ccc(Oc2cccc(OCCOCCOCCOCCOCCOCCOCCNC(=O)CCCC[C@@H]3SC[C@@H]4NC(=O)N[C@@H]43)c2)nc1)C(=O)O | 1 to 10 nM
* CC(C)(C)CC[C@H](NC(=O)c1ccc(Oc2cccc(C(=O)NCCOCCOc3ncc(-c4ccc5c(n4)N(Cc4cccnc4C#N)C(C)(C)C5=O)cn3)c2)nc1)C(=O)O | 1 to 10 nM

## Task Which Kd value belongs to C[C@@H]1CN(c2ncc(-c3ccc4c(n3)N(Cc3cccnc3C#N)C(C)(C)C4=O)cn2)CCN1C(=O)COCCCCNc1cccc(Oc2ccc(C(=O)N[C@@H](CCC(C)(C)C)C(=O)O)cn2)c1 ?
## Result < 1 nM

---

Listing: pKd of selected molecules
# measured on: soluble ectodomain of sortilin-6his (Homo sapiens, UniProt Q99523, V650M)
# Construct: the soluble ectodomain of sortilin-6his is measured by microscale thermophoresis (MST)
# test details: MST binding to soluble ectodomain of sortilin-6his
# test conditions: Table 4; small molecule bifunctional compounds; MST; read-out: KD score, binding to sortilin (Kd)
pKd: −log10 of the molar value.

Example cases with answers are listed next.
- CC(C)(C)CC[C@H](NC(=O)c1ccc(Oc2cccc(OCCOCCOCCNC(=O)CCCC[C@@H]3SC[C@@H]4NC(=O)N[C@@H]43)c2)nc1)C(=O)O [BF022]: 6.60 to 8.00
- C[C@@H]1CN(c2ncc(-c3ccc4c(n3)N(Cc3cccnc3C#N)C(C)(C)C4=O)cn2)CCN1C(=O)COCCNc1cccc(Oc2ccc(C(=O)N[C@@H](CCC(C)(C)C)C(=O)O)cn2)c1 [BF047]: 8.00 to 9.00
- Cc1nc2cc(F)c(-c3cnc(OCCOCCn4cc(COCC(=O)N5CC(OCCNC(=O)COc6cccc(Oc7ccc(C(=O)N[C@@H](CCC(C)(C)C)C(=O)O)cn7)c6)C5)nn4)nc3)nc2c(N[C@H](C)c2cc(C#N)ccc2F)c1Cl [BF088]: 8.00 to 9.00
- CC(C)(C)CC[C@H](NC(=O)c1ccc(Oc2cccc3c(C(=O)NCCCNC(=O)CCOCCOCCNc4ccc([N+](=O)[O-])cc4[N+](=O)[O-])cccc23)nc1)C(=O)O [BF009]: 8.00 to 9.00
- CC(C)(C)CC[C@H](NC(=O)c1ccc(Oc2cccc(C(=O)NCCOCCOCCOCCOc3ncc(-c4ccc5c(n4)N(Cc4cccnc4C#N)C(C)(C)C5=O)cn3)c2)nc1)C(=O)O [BF054]: 8.00 to 9.00
- CC(C)(C)CC[C@H](NC(=O)c1ccc(Oc2cccc(OCCOCCOCCOCCOCCOCCOCCOCCNc3ccc([N+](=O)[O-])cc3[N+](=O)[O-])c2)nc1)C(=O)O [BF012]: 8.00 to 9.00
- C[C@@H]1CN(c2ncc(-c3ccc4c(n3)N(Cc3cccnc3C#N)C(C)(C)C4=O)cn2)CCN1C(=O)COCCNC(=O)c1cccc(Oc2ccc(C(=O)N[C@@H](CCC(C)(C)C)C(=O)O)cn2)c1 [BF058]: 8.00 to 9.00
- C[C@@H]1CN(c2ncc(-c3ccc4c(n3)N(Cc3cccnc3C#N)C(C)(C)C4=O)cn2)CCN1C(=O)Cn1cc(COCCOCCOCC(=O)N2CC(Oc3cccc(Oc4ccc(C(=O)N[C@@H](CCC(C)(C)C)C(=O)O)cn4)c3)C2)nn1 [BF111]: > 9.00
- Cc1nc2cc(F)c(-c3cnc(N4CCN(C(=O)Cn5cc(COCCOCCOCC(=O)N6CCC(Oc7cccc(Oc8ccc(C(=O)N[C@@H](CCC(C)(C)C)C(=O)O)cn8)c7)CC6)nn5)[C@H](C)C4)nc3)nc2c(N[C@H](C)c2cc(C#N)ccc2F)c1Cl [BF094]: 8.00 to 9.00

## Task Which pKd value belongs to CC(C)(C)CC[C@H](NC(=O)c1ccc(Oc2cccc(C(=O)NCCOCCOCCOCCOCCOCCOCCNC(=O)CCCC[C@@H]3SC[C@@H]4NC(=O)N[C@@H]43)c2)nc1)C(=O)O [BF023] ?
## Result 6.60 to 8.00

---

Listing: pKd of selected compounds
# measured on: soluble ectodomain of sortilin-6his (Homo sapiens, UniProt Q99523, V650M)
# Construct: the soluble ectodomain of sortilin-6his is measured by microscale thermophoresis (MST)
# test details: MST binding to soluble ectodomain of sortilin-6his
# test conditions: Table 4; small molecule bifunctional compounds; MST; read-out: KD score, binding to sortilin (Kd)
pKd: −log10 of the molar value.

• Cc1nc2cc(F)c(-c3cnc(OCCN4CCC(n5cc(COCC(=O)N6CCC(OCCNC(=O)COc7cccc(Oc8ccc(C(=O)N[C@@H](CCC(C)(C)C)C(=O)O)cn8)c7)CC6)nn5)CC4)nc3)nc2c(N[C@H](C)c2cc(C#N)ccc2F)c1Cl = > 9.00
• C[C@@H]1CN(c2ncc(-c3ccc4c(n3)N(Cc3cccnc3C#N)C(C)(C)C4=O)cn2)CCN1C(=O)Cn1cc(COCCOCCOCC(=O)N2CCC(Oc3cccc(Oc4ccc(C(=O)N[C@@H](CCC(C)(C)C)C(=O)O)cn4)c3)CC2)nn1 = > 9.00

## Task Which pKd value belongs to C[C@@H]1CN(c2ncc(-c3ccc4c(n3)N(Cc3cccnc3C#N)C(C)(C)C4=O)cn2)CCN1C(=O)Cn1cc(COCCOCCOCCOCCOc2cccc(Oc3ccc(C(=O)N[C@@H](CCC(C)(C)C)C(=O)O)cn3)c2)nn1 ?
## Result 8.00 to 9.00

## Task Which pKd value belongs to CC(C)(C)CC[C@H](NC(=O)c1ccc(Oc2cccc(C(=O)NCCOCCOCCOc3ncc(-c4ccc5c(n4)N(Cc4cccnc4C#N)C(C)(C)C5=O)cn3)c2)nc1)C(=O)O ?
## Result 8.00 to 9.00

## Task Which pKd value belongs to CC(C)(C)CC[C@H](NC(=O)c1ccc(Oc2cccc(OCCOCCOCCOCCOCCOCCOCCOCCOCCNC(=O)CCCC[C@@H]3SC[C@@H]4NC(=O)N[C@@H]43)c2)nc1)C(=O)O ?
## Result 6.60 to 8.00

## Task Which pKd value belongs to CC(C)(C)CC[C@H](NC(=O)c1ccc(Oc2cccc(C(=O)NCCOCCOCCOCc3ccc(-c4cccc5ccncc45)c(OCCc4ccc(-c5cccc6ccncc56)cc4)c3)c2)nc1)C(=O)O ?
## Result > 9.00

## Task Which pKd value belongs to C[C@@H]1CN(c2ncc(-c3ccc4c(n3)N(Cc3cccnc3C#N)C(C)(C)C4=O)cn2)CCN1C(=O)COCCOCCOCCNC(=O)c1cccc(Oc2ccc(C(=O)N[C@@H](CCC(C)(C)C)C(=O)O)cn2)c1 ?
## Result 6.60 to 8.00

## Task Which pKd value belongs to C[C@@H]1CN(c2ncc(-c3ccc4c(n3)N(Cc3cccnc3C#N)C(C)(C)C4=O)cn2)CCN1C(=O)COCCCCNC(=O)c1cccc(Oc2ccc(C(=O)N[C@@H](CCC(C)(C)C)C(=O)O)cn2)c1 ?
## Result 8.00 to 9.00

## Task Which pKd value belongs to CC(C)(C)CC[C@H](NC(=O)c1ccc(Oc2cccc(C(=O)NCCOCCOCCNc3ccc([N+](=O)[O-])cc3[N+](=O)[O-])c2)nc1)C(=O)O ?
## Result 8.00 to 9.00

## Task Which pKd value belongs to CC(C)(C)CC[C@H](NC(=O)c1ccc(Oc2cccc(C(=O)NCCOCCOCCOCCOCCOCCOCc3ccc(-c4cccc5ccncc45)c(OCCc4ccc(-c5cccc6ccncc56)cc4)c3)c2)nc1)C(=O)O ?
## Result 6.60 to 8.00
